- protocol: NCI Yeast Anticancer Drug Screen. Data for the rad50 strain (AID 155);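 also: 0% = growth of vehicle-only cultures of the same strain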
- cond: S. cerevisiae rad50 strain growth inhibition; at 50.0 µM (retest, dose inferred, filed as 5.0)
Compounds without any hit were thinned out: in the full panel of roughly 79,000, 15% have a hit. Activity calls are given as the source filed them. Rule as the data show it: active = growth inhibition above about 70%; inactive = the rest.
Outcomes: 1 = active, 0 = inactive

{"compound": "CC(C)c1cc([N+](=O)[O-])cc([N+](=O)[O-])c1O", "answer_label": 1}
{"compound": "O=C([CH-]C(=O)c1ccccc1)c1ccccc1.O=C([CH-]C(=O)c1ccccc1)c1ccccc1.[CH2-]CCC.[CH2-]CCC.[Sn+4]", "answer_label": 1}
{"compound": "O=C(Nc1ccccc1)c1cc([N+](=O)[O-])ccc1O.[Ni]", "answer_label": 0}
{"compound": "O=C1C(F)=C(N2CC2)C(=O)C(N2CCOCC2)=C1N1CC1", "answer_label": 1}
{"compound": "Cc1ccc(S(=O)(=O)/N=[Se](\\C)c2ccccc2)cc1 (stereo not drawn)", "answer_label": 1}
{"compound": "O=[As]c1cccc2ccccc12 (stereo not drawn)", "answer_label": 1}
{"compound": "CC(=O)[O-].O=C([CH-]C(=O)c1ccccc1)c1ccccc1.O=C([CH-]C(=O)c1ccccc1)c1ccccc1.[Dy+3]", "answer_label": 1}
{"compound": "C[C@]12CC[C@H]3[C@@H](CCC4=CC(=O)CC[C@@H]43)[C@@H]1CC[C@@H]2OC(=O)N(CCCl)N=O", "answer_label": 1}
{"compound": "O=C([CH-]C(=O)c1ccccc1)c1ccccc1.O=C([CH-]C(=O)c1ccccc1)c1ccccc1.[La+3].[OH-].[OH3+]", "answer_label": 0}
{"compound": "CCC(C)c1cnc(CC(C)C)c(=O)n1O (stereo not drawn)", "answer_label": 1}
{"compound": "O=c1c2ccccc2[nH]c(=S)n1-c1cccc(C(F)(F)F)c1", "answer_label": 0}
{"compound": "Cc1ccc2c(c1)N(CCN(CCCl)CCCl)c1c(ccc3ccccc13)S2", "answer_label": 1}
{"compound": "O=P(O)(Oc1ccccc1)Oc1ccccc1.[Ag]", "answer_label": 1}

Each recorded value in this set is attributed to PubChem BioAssay (NCI).
